Tested system: Chromo domain-containing protein 1 (Saccharomyces cerevisiae (strain ATCC 204508 / S288c) (Baker's yeast)) (UniProt P32657)
Sequence (P32657 whole entry, the tested form may be a part): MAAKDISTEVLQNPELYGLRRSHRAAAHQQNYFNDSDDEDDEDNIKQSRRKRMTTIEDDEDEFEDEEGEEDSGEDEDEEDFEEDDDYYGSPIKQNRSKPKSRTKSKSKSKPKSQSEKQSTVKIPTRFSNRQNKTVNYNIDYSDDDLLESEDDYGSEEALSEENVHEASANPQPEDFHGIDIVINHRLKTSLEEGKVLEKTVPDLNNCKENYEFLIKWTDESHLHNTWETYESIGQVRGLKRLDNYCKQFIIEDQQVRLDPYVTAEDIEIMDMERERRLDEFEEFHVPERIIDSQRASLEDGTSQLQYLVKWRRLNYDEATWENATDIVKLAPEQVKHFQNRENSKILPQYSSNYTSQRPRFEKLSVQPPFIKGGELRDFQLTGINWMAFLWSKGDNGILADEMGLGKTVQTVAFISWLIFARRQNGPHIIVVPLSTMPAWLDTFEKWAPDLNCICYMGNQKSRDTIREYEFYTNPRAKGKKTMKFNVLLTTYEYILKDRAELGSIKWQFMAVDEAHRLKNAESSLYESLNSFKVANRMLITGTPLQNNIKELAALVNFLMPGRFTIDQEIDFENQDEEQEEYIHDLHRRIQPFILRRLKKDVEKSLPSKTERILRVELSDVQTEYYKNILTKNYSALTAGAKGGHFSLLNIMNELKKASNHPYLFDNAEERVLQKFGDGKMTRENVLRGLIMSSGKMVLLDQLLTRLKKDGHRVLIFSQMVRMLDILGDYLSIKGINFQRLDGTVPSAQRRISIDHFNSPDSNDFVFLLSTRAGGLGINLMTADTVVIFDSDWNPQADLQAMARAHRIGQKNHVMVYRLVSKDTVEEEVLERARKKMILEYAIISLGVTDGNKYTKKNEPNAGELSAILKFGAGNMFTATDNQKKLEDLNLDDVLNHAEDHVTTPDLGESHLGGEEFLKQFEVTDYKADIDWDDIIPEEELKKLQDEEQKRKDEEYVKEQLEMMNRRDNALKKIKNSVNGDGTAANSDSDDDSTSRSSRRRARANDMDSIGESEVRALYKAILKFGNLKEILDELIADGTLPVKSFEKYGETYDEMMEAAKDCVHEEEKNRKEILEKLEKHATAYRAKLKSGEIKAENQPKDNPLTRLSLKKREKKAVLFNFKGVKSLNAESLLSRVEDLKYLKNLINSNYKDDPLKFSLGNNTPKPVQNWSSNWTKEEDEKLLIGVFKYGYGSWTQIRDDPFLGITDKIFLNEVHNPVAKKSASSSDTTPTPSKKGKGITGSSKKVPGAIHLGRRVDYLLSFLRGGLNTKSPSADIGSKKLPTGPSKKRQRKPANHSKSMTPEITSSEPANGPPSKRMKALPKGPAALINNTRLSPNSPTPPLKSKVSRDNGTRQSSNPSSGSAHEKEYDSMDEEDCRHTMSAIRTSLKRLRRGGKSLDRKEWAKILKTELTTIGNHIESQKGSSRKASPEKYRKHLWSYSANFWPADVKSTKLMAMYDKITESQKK
Procedure text: ScCHD-1 Enzyme Inhibition Assay; further: in the data most compounds retested in dose-response had high values
Type: functional
Parameters: scale not given: direction of the effect not stated beside the values
Stated conditions: 30 µM
Observed property: Percent Effect (%)
Your answer is read as %, so omit the unit and give the number.

Worked cases, answers included:
1) Cc1cncc(C(=O)N2CCCCC2c2nc(C)cs2)c1 (centres undefined) | -10.7
2) COc1ccccc1CC1CCCN(CCC#N)C1 (centres undefined) | -9.24
3) CCc1cnc2c(c1Nc1ccc(OC)cc1)c(=O)n(C)c(=O)n2C | -11.2
4) Cc1cnn(CCC(=O)N2CCCN(c3ncccc3C#N)CC2)c1 | -30.4
5) Cc1cccc(C(=O)NC2CCN(c3cnn(C)c3)C2=O)n1 (centres undefined) | -10.2

### Prompt So what does the record say about Percent Effect for CCNC(=O)[C@@H]1C[C@H](NC(=O)c2cncnc2C)CN1CCCSC ?
### Response -0.349

### Prompt So what does the record say about Percent Effect for c1ccc2sc(CN3CCCC3c3noc(C4CC4)n3)nc2c1 (centres undefined) ?
### Response 6.83

###

Organism: Homo sapiens
Procedure text: To identify inhibition of the IFN signalling (Jak-Stat) pathway via expression of an eGFP reporter gene under the control of an IFN-stimulated response element (ISRE) containing MxA promoter.
Type: functional
Parameters: scale not given: direction of the effect not stated beside the values
Stated conditions: 30 µM
# strict inequality: Percent Effect < 10% yields 1 (yes), everything else yields 0 (no)

### Prompt Bench note: check whether COc1cccc(C)c1C(=O)N1C[C@@H](CN(C)C)[C@@H](CO)C1 shows Percent Effect below 10%
### Response 1 (yes)

###

Tested system: Tyrosyl-tRNA synthetase, putative (Trypanosoma cruzi (strain CL Brener))
Sequence (whole entry): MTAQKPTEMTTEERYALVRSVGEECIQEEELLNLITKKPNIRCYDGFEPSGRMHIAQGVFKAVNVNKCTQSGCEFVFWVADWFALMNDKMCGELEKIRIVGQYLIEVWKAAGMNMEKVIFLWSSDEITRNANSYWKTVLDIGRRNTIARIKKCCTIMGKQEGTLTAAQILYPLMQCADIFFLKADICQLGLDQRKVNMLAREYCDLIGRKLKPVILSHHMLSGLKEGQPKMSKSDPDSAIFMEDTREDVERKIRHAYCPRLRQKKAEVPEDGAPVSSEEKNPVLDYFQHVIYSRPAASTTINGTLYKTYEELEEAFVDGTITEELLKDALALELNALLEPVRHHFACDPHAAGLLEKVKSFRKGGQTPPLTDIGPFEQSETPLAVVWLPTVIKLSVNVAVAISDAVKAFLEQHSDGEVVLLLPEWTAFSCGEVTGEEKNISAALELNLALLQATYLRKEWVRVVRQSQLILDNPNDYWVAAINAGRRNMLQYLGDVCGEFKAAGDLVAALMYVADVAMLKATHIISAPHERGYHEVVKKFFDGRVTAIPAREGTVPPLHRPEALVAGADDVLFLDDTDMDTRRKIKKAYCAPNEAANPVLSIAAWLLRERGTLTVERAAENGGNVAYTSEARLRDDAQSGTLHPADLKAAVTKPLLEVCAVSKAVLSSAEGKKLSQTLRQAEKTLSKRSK
Procedure text: Trypanosoma cruzi tyrosyl tRNA synthetase (TcYRS) _High Tyrosine SOP; further: in the data most compounds retested in dose-response had high values
Assay type: functional
Design: scale not given: direction of the effect not stated beside the values
Stated conditions: 30 µM
Observed property: Percent Effect (%)
Your answer is read as %, so omit the unit and give the number.

Worked cases, answers included:
1. CCc1nnc(CNCC2CCCN2c2cccnn2)o1 (stereo unspecified) | 8.33
2. Cc1csc(N2CCN(C(=O)Cc3ccsc3)CC2)n1 | 10.3
3. O=C(NCC(Cc1cccc(F)c1)N1CCCC1=O)c1cnccn1 (stereo unspecified) | 4.3
4. CCc1nc(NCCCn2cccn2)c2c(n1)c(C)nn2C | 6.35
5. Cc1ccc(CN2C[C@@H]3COC[C@H](NS(C)(=O)=O)[C@@H]3C2)o1 | 4.17
6. CC(C)[C@H](NC(=O)NC1CCS(=O)(=O)C1)C(=O)NCc1cccnc1 (stereo partly specified) | 0
7. CCOC(=O)c1sc(NC(=O)CN(C)S(C)(=O)=O)c(C#N)c1C | 3.17
8. Cc1nn(C)c(C)c1C1COCCN1C(=O)c1ccccc1 (stereo unspecified) | 2.91

### Prompt So what does the record say about Percent Effect for COc1c(C2CCCN2C(=O)c2ccc(Cl)o2)c(C)nn1C (stereo unspecified) ?
### Response 5.94

### Prompt So what does the record say about Percent Effect for NC(=O)C1CCN(C(=O)CCn2ccc3cc(Br)ccc32)CC1 ?
### Response 3.16

### Prompt So what does the record say about Percent Effect for O=C(CN1CCCC(Cn2cncn2)C1)NCc1ccco1 (stereo unspecified) ?
### Response 1.48
